Form field: pIC50 (one value per entry).
# target or system: BACE1 enzyme (Homo sapiens, UniProt P56817)
# Construct: The HEK293-9B.A1 cell line, which overexpresses the BACE1 enzyme, was derived from HEK293 cells; endogenous in cells; washed 48,000 x g pellet of the cell homogenate
# Sequence (P56817 46-501): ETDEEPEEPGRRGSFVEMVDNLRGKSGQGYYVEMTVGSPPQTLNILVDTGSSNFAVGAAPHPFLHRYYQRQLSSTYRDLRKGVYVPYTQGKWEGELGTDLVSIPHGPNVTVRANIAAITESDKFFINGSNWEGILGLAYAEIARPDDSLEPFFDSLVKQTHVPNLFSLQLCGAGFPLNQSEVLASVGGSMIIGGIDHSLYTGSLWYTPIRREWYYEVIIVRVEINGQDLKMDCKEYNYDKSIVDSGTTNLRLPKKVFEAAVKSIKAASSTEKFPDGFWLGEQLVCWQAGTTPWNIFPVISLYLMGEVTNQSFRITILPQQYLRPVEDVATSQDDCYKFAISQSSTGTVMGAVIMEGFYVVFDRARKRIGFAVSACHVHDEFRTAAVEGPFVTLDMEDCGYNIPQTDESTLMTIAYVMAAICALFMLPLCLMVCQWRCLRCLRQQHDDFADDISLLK
# assay explanation: Radioligand displacement assay with a radiolabeled BACE inhibitor on HEK293-9B.A1 cell homogenate
# Type: binding
# condition: displacement of 1 nM tritiated radioligand, HEK293-9B.A1 homogenate, pH 5.0, 1.5 hr at 25° C.; read-out: Activity Rating (activity based on IC50 values)
pIC50: −log10 of the molar value. Structures can show the parent of a compound that is named as a salt.

| compound | pIC50 |
| --- | --- |
| CCCO/N=C(\C)c1cc(C(=O)N[C@@H](Cc2cc(F)cc(F)c2)[C@H](O)CNCc2cccc(OC)c2)cc(N(C)S(C)(=O)=O)c1 [Example 32, TFA salt] | 6.00 to 7.00 |

**Query** # get_value(readout='pIC50', item= CO/N=C(/C)c1cc(C(=O)NC(C)c2ccc(F)cc2)cc(C(=O)N[C@@H](Cc2cc(F)cc(F)c2)[C@H](O)CNCc2cccc(OC)c2)c1 (stereo partly drawn) [Example 50, TFA salt] )
**Result** > 7.00

**Query** Also CO/N=C(\C)c1cc(C(=O)N[C@@H](Cc2cc(F)cc(F)c2)[C@H](O)CNCc2cccc(OC)c2)cc(S(C)(=O)=O)c1 [Example 17, TFA salt] ?
**Result** 6.00 to 7.00

**Query** Also CO/N=C(\C)c1cc(C(=O)N[C@@H](Cc2cc(F)cc(F)c2)[C@H](O)CNCc2cccc(OC)c2)cc(N(c2ccccc2)S(C)(=O)=O)c1 ?
**Result** > 7.00

**Query** Also COc1cccc(CNC[C@@H](O)[C@H](Cc2cc(F)cc(F)c2)NC(=O)c2cc(C(C)=O)cc(N(c3ccccc3)S(C)(=O)=O)c2)c1 [Example 36, TFA salt] ?
**Result** > 7.00

**Query** Also CCCN(C)C(=O)c1cc(C(=O)N[C@@H](Cc2cc(F)cc(F)c2)[C@H](O)CNCc2cccc(OC)c2)cc(/C(C)=N/O)c1 [Example 9, hydrochloride] ?
**Result** > 7.00

**Query** Also COc1cccc(CNC[C@@H](O)[C@H](Cc2cc(F)cc(F)c2)NC(=O)c2cc(/C(C)=N/OCC(C)C)cc(N3CCCCS3(=O)=O)c2)c1 [Example 27, TFA salt] ?
**Result** 6.00 to 7.00

---

# target or system: BACE1 enzyme (Homo sapiens, UniProt P56817)
# Construct: The HEK293-9B.A1 cell line, which overexpresses the BACE1 enzyme, was derived from HEK293 cells; endogenous in cells; washed 48,000 x g pellet of the cell homogenate
# assay explanation: Radioligand displacement assay with a radiolabeled BACE inhibitor on HEK293-9B.A1 cell homogenate
# Type: binding
pIC50: −log10 of the molar value. Counter-ions that a name gives are not always drawn.
measurement name: pIC50

| molecule | pIC50 |
| --- | --- |
| COc1cccc(CNC[C@@H](O)[C@H](Cc2cc(F)cc(F)c2)NC(=O)c2cc(C(=O)N[C@H](C)c3ccccc3)cc(C(C)O)c2)c1 (some centres unmarked) [Example 45, TFA salt] | > 7.00 |

Could you now look at the following molecule, please?
**Query** # get_value(readout='pIC50', item= C=CCO/N=C(/C)c1cc(C(=O)N[C@@H](Cc2cc(F)cc(F)c2)[C@H](O)CNCc2cccc(OC)c2)cc(C(=O)N[C@H](C)c2ccccc2)c1 [Example 46, TFA salt] )
**Result** > 7.00

Reference source: patent US7476764B2
